test system: Escherichia coli; assay: Antimicrobial activity against Escherichia coli ATCC 25922 assessed as reduction in bacterial growth by broth dilution method; format: functional
Peptide text beside a SMILES is read from it.
Item-by-item account of MIC
Please respond with the number in µM and leave the unit unwritten.

NCCCC[C@H](NC(=O)[C@H](Cc1c[nH]c2ccccc12)NC(=O)[C@H](CCCCN)NC(=O)[C@H](Cc1ccccc1)NC(=O)[C@@H]1CCCN1C(=O)[C@H](Cc1c[nH]c2ccccc12)NC(=O)[C@H](Cc1c[nH]c2ccccc12)NC(=O)[C@H](Cc1c[nH]c2ccccc12)NC(=O)[C@@H]1CCCN1C(=O)[C@H](Cc1ccccc1)NC(=O)[C@H](CCCCN)NC(=O)[C@H](Cc1c[nH]c2ccccc12)NC(=O)[C@H](CCCCN)NC(=O)[C@@H](N)Cc1c[nH]c2ccccc12)C(=O)N[C@@H](Cc1c[nH]c2ccccc12)C(N)=O (H-WKWKFPWWWPFKWKW-NH2): 128

Please turn your attention to the following entry.
Lookup: Return reported MIC; argument: CC[C@H](C)[C@H](NC(=O)[C@H](CCCCN)NC(=O)[C@@H](NC(=O)[C@H](Cc1ccccc1)NC(=O)[C@@H]1CCCN1C(=O)[C@H](Cc1c[nH]c2ccccc12)NC(=O)[C@H](Cc1c[nH]c2ccccc12)NC(=O)[C@H](Cc1c[nH]c2ccccc12)NC(=O)[C@@H]1CCCN1C(=O)[C@H](Cc1ccccc1)NC(=O)[C@@H](NC(=O)[C@H](CCCCN)NC(=O)[C@@H](NC(=O)[C@@H](N)CCCCN)[C@@H](C)CC)[C@@H](C)CC)[C@@H](C)CC)C(=O)N[C@@H](CCCCN)C(N)=O (H-KIKIFPWWWPFIKIK-NH2)
Found: 8

* * *

Item-by-item account of MIC
system: Escherichia coli; test: Antimicrobial activity against Escherichia coli ATCC 25922 assessed as reduction in bacterial growth by broth dilution method; assay type: functional
Peptide text beside a SMILES is read from it.
Please respond with the number in µM and leave the unit unwritten.

CC(C)C[C@H](NC(=O)[C@H](CCCCN)NC(=O)[C@H](CC(C)C)NC(=O)[C@H](CCCCN)NC(=O)[C@H](Cc1ccccc1)NC(=O)[C@@H]1CCCN1C(=O)[C@H](Cc1c[nH]c2ccccc12)NC(=O)[C@H](Cc1c[nH]c2ccccc12)NC(=O)[C@H](Cc1c[nH]c2ccccc12)NC(=O)[C@@H]1CCCN1C(=O)[C@H](Cc1ccccc1)NC(=O)[C@H](CCCCN)NC(=O)[C@H](CC(C)C)NC(=O)[C@H](CCCCN)NC(=O)[C@H](CC(C)C)NC(=O)[C@@H](N)CCCCN)C(=O)N[C@@H](CCCCN)C(N)=O (H-KLKLKFPWWWPFKLKLK-NH2): 8

Please turn your attention to the following entry.
Lookup: Return reported MIC; argument: CO[C@H]1/C=C/O[C@@]2(C)Oc3c(C)c(O)c4c(O)c(c(/C=N/N5CCN(C)CC5)c(O)c4c3C2=O)NC(=O)/C(C)=C\C=C\[C@H](C)[C@H](O)[C@@H](C)[C@@H](O)[C@@H](C)[C@H](OC(C)=O)[C@@H]1C [RIFAMPIN]
Found: 8

* * *

assay: Hemolytic activity in human Red blood cell assessed as hemolysis incubated for 1 hrs by microplate reader based analysis; type: toxicity; settings: erythrocyte
Peptide text beside a SMILES is read from it.
Item-by-item account of HC10

Before answering, review these 2 worked examples.
CC[C@H](C)[C@H](NC(=O)[C@H](CCCCN)NC(=O)[C@@H](NC(=O)[C@H](CCCCN)NC(=O)[C@@H]1CCCN1C(=O)[C@H](Cc1c[nH]c2ccccc12)NC(=O)[C@H](Cc1c[nH]c2ccccc12)NC(=O)[C@H](Cc1c[nH]c2ccccc12)NC(=O)[C@@H]1CCCN1C(=O)[C@H](CCCCN)NC(=O)[C@@H](NC(=O)[C@H](CCCCN)NC(=O)[C@@H](NC(=O)[C@@H](N)CCCCN)[C@@H](C)CC)[C@@H](C)CC)[C@@H](C)CC)C(=O)N[C@@H](CCCCN)C(N)=O (H-KIKIKPWWWPKIKIK-NH2): > 256 µM
CC[C@H](C)[C@H](N)C(=O)N[C@@H](CCCCN)C(=O)N[C@H](C(=O)N[C@@H](CCCCN)C(=O)N1CCC[C@H]1C(=O)N[C@@H](Cc1c[nH]c2ccccc12)C(=O)N[C@@H](Cc1c[nH]c2ccccc12)C(=O)N[C@@H](Cc1c[nH]c2ccccc12)C(=O)N1CCC[C@H]1C(=O)N[C@@H](CCCCN)C(=O)N[C@H](C(=O)N[C@@H](CCCCN)C(=O)N[C@H](C(N)=O)[C@@H](C)CC)[C@@H](C)CC)[C@@H](C)CC (H-IKIKPWWWPKIKI-NH2): > 256 µM

Lookup: Return reported HC10; argument: CN[C@H](CC(C)C)C(=O)N[C@H]1C(=O)N[C@@H](CC(N)=O)C(=O)N[C@H]2C(=O)N[C@H]3C(=O)N[C@H](C(=O)N[C@H](C(=O)O)c4cc(O)cc(O)c4-c4cc3ccc4O)[C@H](O)c3ccc(c(Cl)c3)Oc3cc2cc(c3O[C@@H]2O[C@H](CO)[C@@H](O)[C@H](O)[C@H]2O[C@H]2C[C@](C)(N)[C@H](O)[C@H](C)O2)Oc2ccc(cc2Cl)[C@H]1O
Found: > 256 µM
